Target: hGLP-1R (Homo sapiens)
Sequence (P43220 24-463): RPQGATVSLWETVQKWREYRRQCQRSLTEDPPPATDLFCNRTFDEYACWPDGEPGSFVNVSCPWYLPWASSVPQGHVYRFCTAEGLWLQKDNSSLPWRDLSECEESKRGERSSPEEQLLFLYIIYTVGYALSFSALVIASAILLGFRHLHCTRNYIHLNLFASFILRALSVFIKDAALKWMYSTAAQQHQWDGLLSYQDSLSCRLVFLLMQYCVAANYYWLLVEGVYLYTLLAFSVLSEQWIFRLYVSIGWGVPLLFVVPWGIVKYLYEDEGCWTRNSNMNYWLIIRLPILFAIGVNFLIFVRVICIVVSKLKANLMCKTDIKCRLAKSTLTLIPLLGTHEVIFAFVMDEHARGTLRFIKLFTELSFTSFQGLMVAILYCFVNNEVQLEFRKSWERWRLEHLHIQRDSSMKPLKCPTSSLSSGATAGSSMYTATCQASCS
Assay: Functional cAMP activation in the presence of 0.1% casein (no HSA);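 also: intracellular cAMP rise after 30 min at 37 °C read by HTRF, normalized between buffer only (0%) and maximal control ligand (100%), four-parameter variable-slope fit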
Format: cell-based
Settings: in the presence of 0.1% casein (no HSA); geometric mean; read-out: Relative cAMP EC50, hGLP-1R
pEC50: −log10 of the molar value. Starred links: 1 amine or outer side, 2 acyl side, 3 side chain; linkers in the order of their positions; H or OH if unused. Non-standard residues stand in square brackets, D forms with d. Groups on a side chain read outwards from the residue. *: point of attachment. C20 diacid = O=C(O)CCCCCCCCCCCCCCCCCCC(=O)*; C18 diacid = O=C(O)CCCCCCCCCCCCCCCCC(=O)*; αMePhe(2-F) = C[C@](N)(Cc1ccccc1F)C(=O)O; γGlu = O=C(O)[C@H](CCC(=O)[*:2])N[*:1]; αMe4Pal = C[C@](N)(Cc1ccncc1)C(=O)O; αMeY = C[C@](N)(Cc1ccc(O)cc1)C(=O)O; 4Pal = N[C@@H](Cc1ccncc1)C(=O)O; αMeL = CC(C)C[C@](C)(N)C(=O)O; αMeS = C[C@](N)(CO)C(=O)O; Orn = NCCC[C@H](N)C(=O)O; AEEA = NCCOCCOCC(=O)O; Aib = CC(C)(N)C(=O)O
# pEC50 annotations
Outcome measure: pEC50

{"Substance": "H-Y[Aib]QGTFTSDYSI[αMeL]LD[Orn]QAAK([AEEA-AEEA-γGlu-C20 diacid])QFVEWLLA[Aib]GPSSGEPPPSEG-NH2 [Example 328]", "Reported": 8.89}
{"Substance": "H-Y[Aib]QGTFTSDFS[Orn][αMeL]LDKK([AEEA-γGlu-γGlu-C18 diacid])AQ[Aib]AFIEYLLE[Aib]GPSSGAPPPSGS-NH2 [Example 192]", "Reported": 8.01}
{"Substance": "H-Y[Aib]QGT[αMePhe(2-F)]TSD[4Pal][αMeS]I[αMeL]LD[Orn]K([AEEA-γGlu-C18 diacid])AQ[αMe4Pal]EFI[dE][αMeY]LIEGGPSSGAPPPSGE-NH2 [Example 1140]", "Reported": 9.49}
